Tested on: mouse plasma stability, LC-MS/MS, 48 h
Assay overview: Inhibitors of Bloom's syndrome helicase: Mouse Plasma Stability Profiling
Measurement context: at 2 µM; stronger effect = higher value
Measured metric: percent remaining (%)
Please give a number only; it is taken to be in %.

Consider O=C(Nc1ccc(F)c(C(F)(F)F)c1)Nc1nnc(-c2ccncc2)s1 . Its measured percent remaining is 100
